Data provenance: paper PMC6254985

molecular target: UniProt P14416
MEASUREMENT_LABEL: IC50 (nM)
Output spec: scalar in nM, unitless text.

The compound CCc1c(C)[nH]c2c1C(=O)[C@@H](CN1CCOCC1)CC2 (single isomer, unassigned) [R(−) enantiomer] on UniProt P14416: IC50 was 21

----------
biological target: human D2S receptor (Homo sapiens, UniProt P14416); assay: [35S]GTPγS binding assay, antagonist activity, D2S; type: biochemical
Sequence (P14416 1-414 isoform P14416-2): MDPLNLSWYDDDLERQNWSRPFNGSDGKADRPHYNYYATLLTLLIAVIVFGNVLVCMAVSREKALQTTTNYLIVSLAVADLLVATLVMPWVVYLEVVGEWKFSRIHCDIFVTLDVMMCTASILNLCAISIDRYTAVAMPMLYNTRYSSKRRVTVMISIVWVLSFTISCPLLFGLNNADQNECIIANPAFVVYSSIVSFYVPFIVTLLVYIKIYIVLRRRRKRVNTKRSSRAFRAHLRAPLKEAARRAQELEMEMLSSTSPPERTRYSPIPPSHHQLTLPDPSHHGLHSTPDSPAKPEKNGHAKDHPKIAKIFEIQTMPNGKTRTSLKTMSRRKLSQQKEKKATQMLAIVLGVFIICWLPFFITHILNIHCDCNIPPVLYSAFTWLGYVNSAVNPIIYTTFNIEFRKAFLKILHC
Where a name gives a salt, the structure may show the parent alone.
MEASUREMENT_LABEL: pIC50
By convention, pIC50 is the negative base-10 log of a molar concentration.

So, CCc1c(C)[nH]c2c1C(=O)C(CN1CCOCC1)CC2 (stereo not shown) [SPN-810M, Molindone Hydrochloride] ? Its pIC50 was 7.07
